Test system: HT1080 8 #cells
Experiment: Cell competitive binding assay against ^177Lu-radiolabeled FAPi-46
Details: competition with ^177Lu-FAPi-46, on ice 2 hours
Record form. Attribute: EC50. Fill in for each entry.
One number for each entry, in ng/mL.

Solved entries (count: 3):
N#C[C@@H]1CC(F)(F)CN1C(=O)CNC(=O)c1cccc2c1CN(C(=O)CCC(=O)NCCNC(=O)CCC(C(=O)O)N1CCN(CC(=O)O)CCN(CC(=O)O)CCN(CC(=O)O)CC1)CC2 (some centres unmarked) [JHH4]; 1.231
N#C[C@@H]1CC(F)(F)CN1C(=O)CNC(=O)c1ccnc2c(NC(=O)CCC(=O)NCCNC(=O)CCC(C(=O)O)N3CCN(CC(=O)O)CCN(CC(=O)O)CCN(CC(=O)O)CC3)cccc12 (some centres unmarked) [OncoFAP-DOTAGA, reference compound]; 2.699
N#C[C@@H]1CC(F)(F)CC1C(=O)CNC(=O)c1ccc2c(c1)CCCN2C(=O)CCC(=O)NCCNC(=O)CCC(C(=O)O)N1CCN(CC(=O)O)CCN(CC(=O)O)CCN(CC(=O)O)CC1 (some centres unmarked) [JHH8]; 13.77

Please give EC50, item by item, for the list that follows.
1. N#C[C@@H]1CC(F)(F)CN1C(=O)CNC(=O)c1cccc2c1CCNC2 [Compound H5b]
2. N#C[C@@H]1CC(F)(F)CN1C(=O)CNC(=O)c1ccc2c(c1)CCCN2 [Compound H8b]

[157.5, 3.219]

----------
Record form. Attribute: Tumor volume (mm^3) Group administration Day 14. Fill in for each entry.
System: HT1080 cell line with high FAP expression
Assay: Therapeutic experiment of ^177Lu-labeled compounds in tumor-bearing mice
Type: in vivo, Balb/c Nude mice
Details: 0.8 mCi, Day 14
One number for each entry, in mm^3.

N#C[C@@H]1CC(F)(F)CN1C(=O)CNC(=O)c1cccc2c1CCCC2C(=O)CCC(=O)NCCNC(=O)CCNC(=O)CN1CCN(CC(=O)O)CCN(CC(=O)O)CCN(CC(=O)O)CC1.[177Lu] (some centres unmarked) [^177Lu-JHH14]; 755.85
N#C[C@@H]1CC(F)(F)CN1C(=O)CNC(=O)c1cccc2c1CCCN2C(=O)CCC(=O)NCCNC(=O)CCC(C(=O)O)N1CCN(CC(=O)O)CCN(CC(=O)O)CCN(CC(=O)O)CC1.[177Lu] (some centres unmarked) [^177Lu-JHH10]; 506.26
N#C[C@@H]1CC(F)(F)CN1C(=O)CNC(=O)c1ccnc2c(NC(=O)CCC(=O)NCCNC(=O)CCC(C(=O)O)N3CCN(CC(=O)O)CCN(CC(=O)O)CCN(CC(=O)O)CC3)cccc12.[177Lu] (some centres unmarked) [^177Lu-OncoFAP-DOTAGA, reference compound]; 844.66
N#C[C@@H]1CC(F)(F)CN1C(=O)CNC(=O)c1cccc2c1CCN(C(=O)CCC(=O)NCCNC(=O)CCC(C(=O)O)N1CCN(CC(=O)O)CCN(CC(=O)O)CCN(CC(=O)O)CC1)C2 (some centres unmarked) [^177Lu-JHH5, metal not drawn]; 545.74

Next:
Indicate its recorded Tumor volume (mm^3) Group administration Day 14; the compound in question is N#C[C@@H]1CC(F)(F)CN1C(=O)CNC(=O)c1cccc(C2CCN(C(=O)CCC(=O)NCCNC(=O)CCC(C(=O)O)N3CCN(CC(=O)O)CCN(CC(=O)O)CCN(CC(=O)O)CC3)CC2)c1.[177Lu] (some centres unmarked) [^177Lu-JHH9]
800.87

Cited source: patent US20260226049A1
